molecular target: 11β-HSD1 (Homo sapiens); construct: detecting cortisol generated from cortisterone by human liver microsomes; from tissue; host or cells: human liver microsomes; assay: In vitro inhibition of 11β-HSD1, HTRF detection of cortisol generated from cortisone by human liver microsomes; type: biochemical; settings: 11β-HSD IC50 (nM), 1 hour at 37° C., pH 6.0, NADPH 200 μM, cortisone 80 nM, inhibition relative to carbenoxolone signal
Sequence (P28845 whole entry): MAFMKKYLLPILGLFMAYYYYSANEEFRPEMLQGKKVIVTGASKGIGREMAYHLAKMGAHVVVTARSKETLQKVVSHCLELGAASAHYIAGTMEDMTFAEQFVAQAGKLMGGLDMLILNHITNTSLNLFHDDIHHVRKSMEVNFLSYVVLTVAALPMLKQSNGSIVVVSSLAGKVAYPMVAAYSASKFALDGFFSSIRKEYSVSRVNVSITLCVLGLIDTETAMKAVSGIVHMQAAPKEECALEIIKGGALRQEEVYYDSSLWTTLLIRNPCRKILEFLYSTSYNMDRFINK
Threshold-based label: IC50 under 400 nM gives True, IC50 not under 400 nM gives False.

QUERY: Quick check: does `Cc1cnc(-c2nc3cc4c(cc3o2)[C@]2(C)CCN(C(=O)c3ccc5nc[nH]c5c3)[C@H](C4)[C@H]2C)cn1` have IC50 under 400 nM?
RESULT: True

QUERY: Quick check: does `Cn1nnc2cc3c(cc21)[C@]1(C)CCN(C(=O)c2ccc4nc[nH]c4c2)[C@H](C3)C1(C)C` have IC50 under 400 nM?
RESULT: True

QUERY: Quick check: does `COc1ccccc1C(=O)N1CC[C@@]2(C)c3cccc(O)c3C[C@@H]1C2(C)C` have IC50 under 400 nM?
RESULT: False

QUERY: Quick check: does `CC1(C)[C@H]2Cc3c(O)cccc3[C@]1(C)CCN2C(=O)c1ccncn1` have IC50 under 400 nM?
RESULT: False

QUERY: Quick check: does `C[C@@H]1[C@H]2Cc3ccc(-c4nnco4)cc3[C@]1(C)CCN2C(=O)c1ccc2nc[nH]c2c1` have IC50 under 400 nM?
RESULT: True

QUERY: Quick check: does `Cc1ccc2[nH]cc(C(=O)N3CC[C@@]4(C)c5cccc(O)c5C[C@@H]3C4(C)C)c2c1` have IC50 under 400 nM?
RESULT: False

QUERY: Quick check: does `COC1CCN(Cc2ccc(C(=O)N3CC[C@@]4(C)c5cccc(O)c5C[C@@H]3C4(C)C)cc2)CC1` have IC50 under 400 nM?
RESULT: False

QUERY: Quick check: does `Cc1noc(C)c1C(=O)N1CC[C@@]2(C)c3cccc(O)c3C[C@@H]1C2(C)C` have IC50 under 400 nM?
RESULT: False

QUERY: Quick check: does `CC1(C)[C@H]2Cc3cc4nccnc4cc3[C@]1(C)CCN2C(=O)c1ccc2nc[nH]c2c1` have IC50 under 400 nM?
RESULT: True

QUERY: Quick check: does `CCn1cc(C(=O)N2CC[C@@]3(C)c4cccc(O)c4C[C@@H]2C3(C)C)c2ccccc21` have IC50 under 400 nM?
RESULT: True

QUERY: Quick check: does `C[C@@H]1[C@H]2Cc3ccc(-c4ncon4)cc3[C@]1(C)CCN2C(=O)c1ccc2nc[nH]c2c1` have IC50 under 400 nM?
RESULT: True

QUERY: Quick check: does `CC(=O)c1ccc(C(=O)N2CC[C@@]3(C)c4ccccc4C[C@@H]2C3(C)C)cc1` have IC50 under 400 nM?
RESULT: True

QUERY: Quick check: does `C[C@@H]1[C@H]2Cc3ccc(-c4cccnc4)cc3[C@]1(C)CCN2C(=O)c1ccc2nc[nH]c2c1` have IC50 under 400 nM?
RESULT: True

QUERY: Quick check: does `CC1(C)[C@H]2Cc3c(O)cccc3[C@]1(C)CCN2C(=O)c1ccccc1C#N` have IC50 under 400 nM?
RESULT: False

QUERY: Quick check: does CC1(C)C2Cc3ccc(O)cc3C1(O)CCN2C(=O)c1ccc2nc[nH]c2c1 (stereo not shown) have IC50 under 400 nM?
RESULT: False

QUERY: Quick check: does `CC1(C)[C@H]2Cc3c(O)cccc3[C@]1(C)CCN2C(=O)c1ccc(N2CCNCC2)cc1` have IC50 under 400 nM?
RESULT: False
